Ref: the supplement of paper PMC11208160

Assay: recombinant barcode read abundance after kanamycin selection (control-corrected) (log10(CPM+1)); higher = more efficient recombination; sequences stand for … in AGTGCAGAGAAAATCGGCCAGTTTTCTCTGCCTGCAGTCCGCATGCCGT…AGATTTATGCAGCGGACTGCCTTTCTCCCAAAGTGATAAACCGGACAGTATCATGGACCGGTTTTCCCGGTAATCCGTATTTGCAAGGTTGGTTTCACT; site = the 11-nt target
Provide the reported recombinant barcode read abundance (log10) of each item.
Answers are plain numbers.

Recorded recombinant barcode read abundance (log10), per entry:
biopolymerSequence: GCCTACCCTTGGGTTCTAACCTGTTGCGG (site GCCGACCCTCG)
reportedValue: 0.0988

biopolymerSequence: TCGCACTCTTGGGTTCTAACCTGTTGCCT (site TCTCACTCTAG)
reportedValue: 0.117

biopolymerSequence: CGCCACCCTTGGGTTCTAACCTGTTGCCT (site CTGCACCCTAG)
reportedValue: 0.0944

biopolymerSequence: CATGGGACTTGGGTTCTAACCTGTTGCAT (site CATGGGACTAT)
reportedValue: 2.06

biopolymerSequence: TAACCTTCTTGGGTTCTAACCTGTTGCCT (site TAACCTTCTAG)
reportedValue: 0.472

biopolymerSequence: ACCAGATCTTGGGTTCTAACCTGTTGCCT (site TCCAGCTCTAG)
reportedValue: 0.152

biopolymerSequence: TATTCTACTTGGGTTCTAACCTGTTGCGC (site TATTCTACTAC)
reportedValue: 0.0305

biopolymerSequence: AAAGTGTCTTGGGTTCTAACCTGTTGCCT (site AAGGTGTCTAG)
reportedValue: 0.489

Provide each entry's recombinant barcode read abundance (log10) from the list below.
1. TAGCTCCCTTGGGTTCTAACCTGTTGCCT (site TAGCTCCCTAG)
2. GGGTCCTCTTGGGTTCTAACCTGTTGCCC (site GGGTCCTCTAG)

[1.21, 1.36]

###

Assay: recombinant UMI read abundance after kanamycin selection (control-corrected) (log10(CPM+1)); higher = more efficient recombination; extreme values may be limits of the assay; sequences stand for … in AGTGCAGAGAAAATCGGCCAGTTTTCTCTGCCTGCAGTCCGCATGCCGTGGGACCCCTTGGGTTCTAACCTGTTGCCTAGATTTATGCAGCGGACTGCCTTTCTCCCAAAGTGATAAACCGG…AGGTTGGTTTCACT; site = the 11-nt donor
testReadout: recombinant UMI read abundance (log10)
Numbers only.

biopolymerSequence: CGAACATCATGGACCGGTTTTCCCGGTAATCCGTATTTGAT (site CGAACATCTAT)
recombinant UMI read abundance (log10): 1.63
--
biopolymerSequence: GGATGGCCATGGACCGGTTTTCCCGGTAATCCGTATTTGCA (site GCATGGCCTTG)
recombinant UMI read abundance (log10): 0
--
biopolymerSequence: GAGCTCACATGGACCGGTTTTCCCGGTAATCCGTATTTGAC (site GAGCTCACTCT)
recombinant UMI read abundance (log10): 0.476
--
biopolymerSequence: CTAGTATCATGGACCGGTTTTCCCGGTAATCCGTATTTGGT (site CTAGTATCTAC)
recombinant UMI read abundance (log10): 1.85
--
biopolymerSequence: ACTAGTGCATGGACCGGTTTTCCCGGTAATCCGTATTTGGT (site TCTAGTGCTAC)
recombinant UMI read abundance (log10): 0.86
--
biopolymerSequence: CGAGTCACATGGACCGGTTTTCCCGGTAATCCGTATTTGGG (site CTAGTCACTCC)
recombinant UMI read abundance (log10): 0.00855
--
biopolymerSequence: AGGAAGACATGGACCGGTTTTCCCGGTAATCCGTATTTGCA (site AGGAAGACTTC)
recombinant UMI read abundance (log10): 0.0105
--
biopolymerSequence: CACGCCTCATGGACCGGTTTTCCCGGTAATCCGTATTTGCC (site CACGCCTCTGG)
recombinant UMI read abundance (log10): 3.32

Moving on to the next sequence.
Note recombinant UMI read abundance (log10) for the sequence shown: GAAAATTCATGGACCGGTTTTCCCGGTAATCCGTATTTGTT (site GAATATTCTAA) 1.79

###

Assay: recombinant barcode read abundance after kanamycin selection (control-corrected) (log10(CPM+1)); higher = more efficient recombination; sequences stand for … in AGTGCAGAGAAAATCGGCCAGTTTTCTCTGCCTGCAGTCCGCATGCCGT…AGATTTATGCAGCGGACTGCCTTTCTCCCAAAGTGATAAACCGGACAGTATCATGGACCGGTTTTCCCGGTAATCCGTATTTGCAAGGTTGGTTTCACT; site = the 11-nt target
testReadout: recombinant barcode read abundance (log10)
Numbers only.

Recorded recombinant barcode read abundance (log10), per entry:
biopolymerSequence: CGCTTGTCTTGGGTTCTAACCTGTTGCCG (site CGCTTGTCTCG)
reportedValue: 0.134
--
biopolymerSequence: GGATACACTTGGGTTCTAACCTGTTGCCG (site TAGACGGCTAT)
reportedValue: 0.342
--
biopolymerSequence: TTAGAGACTTGGGTTCTAACCTGTTGCCT (site TTAGAGACTAG)
reportedValue: 2.32
--
biopolymerSequence: GGAGATGCTTGGGTTCTAACCTGTTGCCT (site GGAGAGGCTAG)
reportedValue: 0.226
--
biopolymerSequence: CTCCGGGCTTGGGTTCTAACCTGTTGCAG (site CTCCGGGCTCT)
reportedValue: 1.81
--
biopolymerSequence: CGGCGTACTTGGGTTCTAACCTGTTGCCT (site CGGCGTACTAG)
reportedValue: 0.959

Provide each entry's recombinant barcode read abundance (log10) from the list below.
1. GAGCAGGCTTGGGTTCTAACCTGTTGCTT (site AGTTCTCCTCG)
2. GATAGTTCTTGGGTTCTAACCTGTTGCCT (site GATAGTACTAG)
3. GGAATGCCTTGGGTTCTAACCTGTTGCCT (site GGAATTCCTAG)
4. TTCCGAGCTTGGGTTCTAACCTGTTGCGG (site TGTCGAGCTCC)
5. TGTTCTACTTGGGTTCTAACCTGTTGCTT (site TGCTCTACTAA)

[0.196, 0.0904, 0.0966, 0.0848, 0.246]

Provide each entry's recombinant barcode read abundance (log10) from the list below.
1. TTCCAATCTTGGGTTCTAACCTGTTGCCA (site TTCCAATCTTG)
2. GAAAACTCTTGGGTTCTAACCTGTTGCCT (site GAAAACTCTAG)
3. AGGGTCGCTTGGGTTCTAACCTGTTGCCT (site AGGGTCGCTAG)
4. TGTTCTACTTGGGTTCTAACCTGTTGCTT (site TGTTCTACTAA)
5. AAGTGCTCTTGGGTTCTAACCTGTTGCCG (site AGGTGCCCTCG)
6. TTCGTTGCTTGGGTTCTAACCTGTTGCCT (site GTCGTTGCTAG)
7. GATCCTACTTGGGTTCTAACCTGTTGCCT (site GTTCCTACTAG)
8. AGGCTGTCTTGGGTTCTAACCTGTTGCCT (site AGGCTGACTAG)

1: 0.713; 2: 1.11; 3: 2.5; 4: 0.0296; 5: 0.0892; 6: 0.0105; 7: 0.0681; 8: 0.54

Provide each entry's recombinant barcode read abundance (log10) from the list below.
1. CTATTGTCTTGGGTTCTAACCTGTTGCGA (site CTATTGTCTCC)
2. CAATGGTCTTGGGTTCTAACCTGTTGCGT (site CAATGGTCTAA)
3. TCGGCCTCTTGGGTTCTAACCTGTTGCTA (site TCGGCCTCTTA)
4. CAAACTACTTGGGTTCTAACCTGTTGCTA (site CAAACTACTGT)

[0.165, 0.583, 0.877, 0.011]

###

Provide the reported recombinant barcode read abundance (log10) of each item.
Test: recombinant barcode read abundance after kanamycin selection (control-corrected) (log10(CPM+1)); higher = more efficient recombination; sequences stand for … in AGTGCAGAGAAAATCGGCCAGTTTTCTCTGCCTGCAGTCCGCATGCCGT…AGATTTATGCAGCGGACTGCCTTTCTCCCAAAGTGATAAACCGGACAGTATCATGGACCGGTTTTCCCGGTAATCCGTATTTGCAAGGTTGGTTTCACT; site = the 11-nt target

Recorded recombinant barcode read abundance (log10), per entry:
biopolymerSequence: TCAAACCCTTGGGTTCTAACCTGTTGCGG (site TCAAACCCTCC)
reportedValue: 1.6
--
biopolymerSequence: CGACTGTCTTGGGTTCTAACCTGTTGCCT (site CGACTGTCTAG)
reportedValue: 1.92
--
biopolymerSequence: GAATGTTCTTGGGTTCTAACCTGTTGCTT (site GAATGTTCTAA)
reportedValue: 0.402
--
biopolymerSequence: TCTCATGCTTGGGTTCTAACCTGTTGCAT (site TCTCATGCTAT)
reportedValue: 0.224
--
biopolymerSequence: GTTGGTCCTTGGGTTCTAACCTGTTGCGT (site GTTGGTCCTAC)
reportedValue: 2.76
--
biopolymerSequence: ACTAGCTCTTGGGTTCTAACCTGTTGCTA (site ACTAGCTCTTA)
reportedValue: 0.145
--
biopolymerSequence: ACTCGATCTTGGGTTCTAACCTGTTGCCT (site AGTCGATCTAA)
reportedValue: 0.0189
--
biopolymerSequence: CACAGTACTTGGGTTCTAACCTGTTGCCT (site CACAGTACTAG)
reportedValue: 0.901

Provide each entry's recombinant barcode read abundance (log10) from the list below.
1. GAGTTCCCTTGGGTTCTAACCTGTTGCGT (site GAGTTTCCTAC)
2. GTCTAAGCTTGGGTTCTAACCTGTTGCCG (site GTCTAAGCTCG)

0.0134
0.59
